assay: T. gondii ME49Luc in HeLa cells, luciferase assay, 72 h, no IFN-y (AID 1259421); conditions: hits give low values, concentration not given here
About 610 (9.5%) of roughly 6,400 compounds were called active. The sample holds actives, similar compounds and a random draw of the others, so the mix is not that of the screen.
measured-property: activity change, negative = inhibition

Lookup: # return recorded activity change, negative = inhibition for entry C=C1/C(=C\C=C2/CCC[C@]3(C)[C@@H]([C@H](C)/C=C/C=C/C(O)(CC)CC)CC[C@@H]23)C[C@@H](O)C[C@@H]1O
Found: 17.9% (inactive)

Lookup: Please supply the value of reported activity change, negative = inhibition for the item CC(C)(O)[C@H]1CC[C@@](C)([C@H]2[C@@H](O)C[C@@]3(C)[C@@H]4C[C@H](O[C@@H]5O[C@H](CO)[C@@H](O)[C@H](O)[C@H]5O)[C@H]5C(C)(C)[C@@H](O[C@@H]6OC[C@@H](O)[C@H](O)[C@H]6O)CC[C@@]56C[C@@]46CC[C@]23C)O1
Found: 3% (inactive)

Lookup: Query activity change, negative = inhibition for CCOC(=O)N1CSCC1C(=O)O (stereo unspecified)
Found: 0.0863% (inactive)

Lookup: Look up and report measured activity change, negative = inhibition for this entry: CCCCCCCCCCCCCCCCCCCCCCCCC(=O)O
Found: 11.5% (inactive)

Lookup: Kindly indicate its recorded activity change, negative = inhibition. Item: Cc1c[nH]c2ccccc12
Found: -2.35% (inactive)

Lookup: Consider the compound C[C@H]1CCO[C@H]2Cn3cc(C(=O)NCc4ccc(F)cc4F)c(=O)c(O)c3C(=O)N21 . State its measured activity change, negative = inhibition.
Found: 25.9% (inactive)

Lookup: Give the reported value of activity change, negative = inhibition for this record: O=c1c(-c2cc(O)c(O)c(O)c2)coc2cc(O)c(O)c(O)c12
Found: 8.75% (inactive)

Lookup: Return value of activity change, negative = inhibition for input CC1CCCC(C)N1 (stereo unspecified) , no commentary.
Found: 19.7% (inactive)

Lookup: Kindly indicate its recorded activity change, negative = inhibition. Item: O=S(=O)(O)C(F)(F)F.O=S(=O)(O)C(F)(F)F.O=S(=O)(O)C(F)(F)F.[Bi]
Found: 11% (inactive)

Lookup: Give the reported activity change, negative = inhibition for this compound. CNC(=O)c1cccc(NCC(=O)NCCc2ccc(OC)c(OC)c2)c1
Found: 16.5% (inactive)

Lookup: Provide one value: measured activity change, negative = inhibition of O=C1N[C@@H]2[C@@H](O)[C@@H](O)[C@H](O)[C@@H](CO)N2C1=O
Found: 11.7% (inactive)

* * *

assay: T. gondii ME49Luc in HeLa cells, luciferase assay, 72 h, no IFN-y (AID 1259421); conditions: concentration not given here
Hit rate of the full screen: of about 6,400 compounds, about 610 (9.5%) were called active. No stated cut-off is given here; in the data, active means activity change below about -70%; inconclusive means no clear call, values can overlap the other calls; inactive means above that. The full list was thinned out, with actives kept by preference.
# output must be one of active, inactive

The examples below pair each entry with its known result.
compound	answer-label
NS(=O)(=O)c1cc2c(cc1Cl)NC(CC1CCCC1)NS2(=O)=O (configuration not stated)	inactive
C[C@@H]1O[C@@H](O[C@H]2[C@H](Oc3cc(O)c4c(=O)cc(-c5ccc(O)cc5)oc4c3)O[C@H](CO)[C@@H](O)[C@@H]2O)[C@H](O)[C@H](O)[C@H]1O	inactive
CO[C@@H]1[C@@H](O[C@@H]2O[C@H](C)[C@@H](O[C@H]3C[C@@](C)(O)[C@H](O)[C@H](C)O3)[C@H](N(C)C)[C@H]2O)[C@@H](CC=O)C[C@@H](C)[C@@H](O[C@H]2CC[C@H](N(C)C)[C@@H](C)O2)/C=C/C=C/C[C@H](C)OC(=O)C[C@H]1O	inactive

Lookup: Dear colleague, could you share the recorded outcome for O=C1Nc2cc(Cl)ccc2Oc2ccccc21 when you have a moment?
Found: inactive

* * *

assay: T. gondii ME49Luc in HeLa cells, luciferase assay, 72 h, no IFN-y (AID 1259421); conditions: concentration not given here
Hit rate of the full screen: of about 6,400 compounds, about 610 (9.5%) were called active. Rule as the data show it: active = activity change below about -70%; inconclusive = no clear call, values can overlap the other calls; inactive = above that. The sample as a whole holds a higher share of actives than the screen did.
Give your call using only these classes: active, inactive

Check out these entries, answers already filled in.
                                   compound  answer_label
0  Nc1ncn([C@H]2C[C@H](O)[C@@H](CO)O2)c(=O)n1      inactive
1  O=C(O)COc1ccc(OCCNC[C@@H](O)COc2ccccc2)cc1      inactive
2  CCC(CC)CC1(C(=O)Nc2ccccc2SC(=O)C(C)C)CCCCC1      inactive

Lookup: For this compound, state the assay outcome: Nc1nc(=O)n([C@H]2C[C@H](O)[C@@H](CO)O2)cc1F
Found: active

Lookup: Dear all, I need the recorded test outcome for CCNC(=O)/C=C/c1cccc(Br)c1 , thank you.
Found: inactive

Lookup: State the result this test recorded for O=C(/C=C/c1cccc(S(=O)(=O)Nc2ccccc2)c1)NO .
Found: active

Lookup: What did this assay record as the result for O=C(/C=C/c1ccccc1)c1ccc(O)cc1O ?
Found: inactive

Lookup: Could you please tell me the result logged for O=c1[nH]c(=O)n([C@H]2C[C@H](O)[C@@H](CO)O2)cc1F in this assay?
Found: active

Lookup: For Cc1cc(Oc2ccc3nc(COc4ccc(CC5SC(=O)NC5=O)cc4)n(C)c3c2)cc(C)c1N (stereo unspecified) , which call appears in the assay record?
Found: inactive

Lookup: Dear colleague, could you share the recorded outcome for N#Cc1cc2c(OCC(O)CN3CCN(C(c4ccccc4)c4ccccc4)CC3)cccc2[nH]1 (stereo unspecified) when you have a moment?
Found: inactive

Lookup: Hello, I am checking results. What call was entered for O=c1[nH]c(=O)n([C@H]2CC(O)[C@@H](CO)O2)cc1C(F)(F)F (stereo partly specified) ?
Found: inactive

* * *

assay: T. gondii ME49Luc in HeLa cells, luciferase assay, 72 h, no IFN-y (AID 1259421); conditions: hits give low values, concentration not given here
Among all 6,400 compounds or so, about 610 (9.5%) were called active. What follows is part of a selection rich in actives, with near analogues and random picks from the rest.
Friendly reminder: activity change, negative = inhibition below -70% is y, at or above is n.

In [3]: df
Out[3]:
                           structure_string  answer_label
0  OCCN1CCN(CCCN2c3ccccc3Sc3ccc(Cl)cc32)CC1             y
1       CN(C)CC/C=C1\c2ccccc2Sc2ccc(Cl)cc21             n
2  OCCN1CCN(CC/C=C2/c3ccccc3Sc3ccc(C(F)(F)F)cc32)CC1             y
3  CCNC(=O)Nc1ccc(-c2nc3c(c(N4CCOC[C@@H]4C)n2)CCN(C2COC2)C3)cc1             n

Lookup: Problem: For the compound OCCN1CCN(CC/C=C2/c3ccccc3Sc3ccc(Cl)cc32)CC1 , is activity change, negative = inhibition under -70%?
Found: y

* * *

assay: T. gondii ME49Luc in HeLa cells, luciferase assay, 72 h, no IFN-y (AID 1259421); details: hits give low values, concentration not given here
The campaign covered roughly 6,400 compounds. About 610 (9.5%) were called active. For the sample, actives were picked, then their nearest neighbours and some compounds at random.
measured-property: activity change, negative = inhibition (%)
Reply numerically in %, unit not repeated.

Past entries and their recorded results:
>>> print(df.to_string())
                           structure_string                       measured_property  quantity_unit  observed_measurement
0  COCc1c(C(C)C)nc(C(C)C)c(/C=C/[C@@H](O)C[C@@H](O)CC(=O)O)c1-c1ccc(F)cc1  activity change, negative = inhibition              %                 -88.4
1  CC(C)CN(C[C@@H](OP(=O)(O)O)[C@H](Cc1ccccc1)NC(=O)O[C@H]1CCOC1)S(=O)(=O)c1ccc(N)cc1  activity change, negative = inhibition              %                 -5.19
2  Cc1ccc(-n2[nH]c(C)c(N=Nc3cccc(-c4cccc(C(=O)O)c4)c3O)c2=O)cc1C  activity change, negative = inhibition              %                 -77.8

Lookup: Give activity change, negative = inhibition for CCOc1ccccc1N=Nc1c(C)[nH]n(-c2nc(-c3ccccc3)cs2)c1=O
Found: -0.237

Lookup: Consider the molecule c1ccc2[nH]c(-c3nc4ccccc4[nH]3)nc2c1 and give its recorded activity change, negative = inhibition.
Found: 156

Lookup: Please look at this molecule and report its activity change, negative = inhibition: c1ccc(-c2nc3ccccc3[nH]2)cc1
Found: 279

Lookup: Assign activity change, negative = inhibition to the following record: COc1cc2c(cc1OC)CC(=O)N(CCCN(C)C[C@@H]1Cc3cc(OC)c(OC)cc31)CC2
Found: 13.9

Lookup: Return activity change, negative = inhibition for the following molecule: O=C1NCCc2[nH]c(-c3ccncc3)cc21
Found: -75.8

Lookup: Kindly indicate its recorded activity change, negative = inhibition. Item: CC(C)c1c(C(=O)Nc2ccccc2)c(-c2ccccc2)c(-c2ccc(F)cc2)n1CC[C@@H](O)C[C@@H](O)CC(=O)O
Found: 9.33
